assay: Cytotoxicity experiment (MTT method) on C8166 cells; type: cell-based; settings: human
class 1 if CC50 at 3 days is below 80 µM. class 0 if not; exact matches included in class 0.

Worked examples, 2 molecules total:
- Molecule: "O=c1cc(CC2CCCCC2)nc(SCc2n[nH]c(-c3ccc(F)c(F)c3)c2Cl)[nH]1 [Compound I-54]"
  Assigned Class: "class 0"
- Molecule: "COc1ccc(-c2cc(CSc3nc(CC4CCCCC4)c(C(C)C)c(=O)[nH]3)n[nH]2)cc1 [Compound I-40]"
  Assigned Class: "class 0"

### Prompt In plain terms, does CCc1c(Cc2cc(F)cc(F)c2)nc(SCc2n[nH]c(-c3ccc(F)cc3)c2Cl)[nH]c1=O [Compound I-63] come in under 80 µM for CC50 at 3 days?
### Response class 0

### Prompt # strict comparison: is reported CC50 at 3 days < 80 µM? input = Cc1c(CC2CCCCC2)nc(SCc2n[nH]c(-c3ccc(F)cc3)c2Cl)[nH]c1=O [Compound I-68]
### Response class 0

### Prompt Determine whether this molecule shows CC50 at 3 days lower than 80 µM (ties excluded): CCc1c(Cc2c(Cl)cccc2Cl)nc(SCc2n[nH]c(-c3ccccc3)c2Cl)[nH]c1=O [Compound I-70]
### Response class 0

----------
Form field: CC50 at 3 days (one value per entry).
experiment: Cytotoxicity experiment (MTT method) on C8166 cells; format: cell-based; conditions: human

- Compound: "O=c1cc(CC2CCCCC2)nc(SCc2cc(-c3ccc(F)c(F)c3)[nH]n2)[nH]1 [Compound I-59]"
  CC50 at 3 days: "89.1 µM"
- Compound: "CC(C)c1c(CC2CCCCC2)nc(SCc2n[nH]c(-c3ccc(F)cc3)c2Cl)[nH]c1=O [Compound I-37]"
  CC50 at 3 days: "73 µM"
- Compound: "CCc1c(Cc2c(Cl)cccc2Cl)nc(SCc2cc(-c3ccc(F)cc3)[nH]n2)[nH]c1=O [Compound I-51]"
  CC50 at 3 days: "45.5 µM"
- Compound: "CCc1c(Cc2ccccc2)nc(SCc2n[nH]c(-c3ccccc3)c2Cl)[nH]c1=O [Compound I-71]"
  CC50 at 3 days: "> 200 µM"
- Compound: "CCc1c(Cc2c(Cl)cccc2Cl)nc(SCc2cc(-c3ccc(F)c(F)c3)[nH]n2)[nH]c1=O [Compound I-60]"
  CC50 at 3 days: "64.9 µM"
- Compound: "CCc1c(Cc2c(Cl)cccc2Cl)nc(SCc2n[nH]c(-c3ccc(F)c(F)c3)c2Cl)[nH]c1=O [Compound I-55]"
  CC50 at 3 days: "> 200 µM"

### Prompt Dear colleague, please send me the reported CC50 at 3 days for CCc1c(Cc2ccc3c(c2)OCO3)nc(SCc2n[nH]c(-c3ccccc3)c2Cl)[nH]c1=O [Compound I-72] when you can.
### Response > 200 µM

### Prompt Annotate the compound CCc1c(Cc2ccccc2)nc(SCc2cc(-c3ccc(F)cc3)[nH]n2)[nH]c1=O [Compound I-49] with its measured CC50 at 3 days.
### Response > 200 µM

### Prompt Provide only the value of recorded CC50 at 3 days for CCc1c(Cc2ccc3c(c2)OCO3)nc(SCc2n[nH]c(-c3ccc(F)cc3)c2Cl)[nH]c1=O [Compound I-65]
### Response > 200 µM

### Prompt Using the record for CCc1c(Cc2cc(F)cc(F)c2)nc(SCc2cc(-c3ccc(F)cc3)[nH]n2)[nH]c1=O [Compound I-52] , state its measured CC50 at 3 days.
### Response > 200 µM

### Prompt Please look at this compound and report its CC50 at 3 days: CC(C)c1c(CC2CCCCC2)nc(SCc2cc(-c3ccc(Cl)cc3)[nH]n2)[nH]c1=O [Compound I-36]
### Response 91.2 µM

### Prompt Determine from records and report CC50 at 3 days for CCc1c(Cc2c(Cl)cccc2Cl)nc(SCc2n[nH]c(-c3ccc(F)cc3)c2Cl)[nH]c1=O [Compound I-64]
### Response > 200 µM

### Prompt Retrieve CC50 at 3 days measured for CC(C)c1c(CC2CCCCC2)nc(SCc2cc(-c3ccccc3)[nH]n2)[nH]c1=O [Compound I-35] and print it.
### Response 104 µM
